Every entry's value here was drawn from ChEMBL document CHEMBL1136222.

target.under.test: Glutamate NMDA receptor
assay.name: Binding affinity for N-methyl-D-aspartate glutamate receptor was measured through displacement of [3H]25-6981
Rule: Ki below 200 nM gives 1, anything at or above gives -1.

1. c1ccc(CCNC2=NCCN2OCc2ccccc2)cc1    -1
2. CCCCCSC1=NCCN1OCc1ccccc1    -1
3. c1ccc(CCCCNC2=NCCN2OCc2ccccc2)cc1    -1
4. CCCCCNC1=NCCN1OCc1cccs1    1
5. CCCCCNC1=NCCN1OCc1ccccc1Cl    1
6. CCCCNC1=NCCN1OCc1ccccc1    1
7. CCCCCNC1=NCCN1CCc1ccccc1    -1
8. C=CCNC1=NCCN1OCc1ccccc1    -1
9. c1ccc(CCCNC2=NCCN2OCc2ccccc2)cc1    -1
10. CCCCCNC1=NCCN1OCc1ccc(C)cc1    -1
11. CCCCCCNC1=NCCN1OCc1ccccc1    1
12. CCCCCNC1=NCCN1OCc1ccc(Cl)cc1    1
13. CCCCCNC1=NCCN1OCc1cccc(C)c1    1
14. CCCCCNC1=NCCN1OCc1ccccc1F    1

---

Documented pKa across a set of molecules
assay.name: pKa value was determined
Format: physicochemical
readout.name: pKa

1) CCCCCNC1=NCCN1OCc1ccccc1    10.1
2) CCCCCNC1=NCCN1OCCCc1ccccc1    10
3) CCCCCNc1nc2ccccc2n1CCc1ccccc1    7.4
4) CCCCCNC1=NCCN1OCCc1ccccc1    9.9
5) CCCCCSC1=NCCN1OCc1ccccc1    8.5

---

target.under.test: Glutamate NMDA receptor
assay.name: Binding affinity for N-methyl-D-aspartate glutamate receptor was measured through displacement of [3H]25-6981
pKi: −log10 of the molar value.
readout.name: pKi

1. OCCNC1=NCCN1OCc1ccccc1    5.65
2. CCCCCNC1=NCCN1OCc1cccc([N+](=O)[O-])c1    6.28
3. Oc1ccc(CCNC2=NCCN2OCc2ccccc2)cc1    6.42

---

Documented pKa across a set of compounds
assay.name: pKa value was determined
Type: physicochemical
readout.name: pKa

1) CCCCC/N=C1/CCCN1CCc1ccccc1    > 11
2) CCCCCNC1=NCCN1CCc1ccccc1    > 12
3) CCCCNC1=NCCCN1OCc1ccccc1    > 12
